Data origin: patent US10752640B2

Molecular target: BRD4 protein (Homo sapiens)
Assay: FRET assay, half maximal inhibitory concentration (IC50)
Assay type: binding
Conditions: BRD4 protein 50 nM, Biotin-H4KAc4 peptide 12.5 nM; A Further List of Classification
measure: IC50

1. Cc1cc(O)nc2ccc(NC(=O)c3cc(S(N)(=O)=O)ccc3N3CCOCC3)cc12 | < 200 nM
2. COC1CCN(Cc2ccc(N3CCCC3)c(C(=O)Nc3ccc4nc(O)cc(C)c4c3)c2)C1 (centres unmarked) | < 200 nM
3. CCN(CC)S(=O)(=O)c1ccc(N2CCCC2)c(C(=O)Nc2ccc3nc(O)cc(C)c3c2)c1 | 500 to 1000 nM
4. COCC1CCCN(Cc2ccc(N3CCCC3)c(C(=O)Nc3ccc4nc(O)cc(C)c4c3)c2)C1 (centres unmarked) | < 200 nM
5. Cc1cc(O)nc2ccc(NC(=O)c3cc(S(=O)(=O)N(C)C)ccc3N3CCC(CN(C)C)C3)cc12 (centres unmarked) | < 200 nM
6. CN1C(=O)CCc2cc(NC(=O)c3cc(S(N)(=O)=O)ccc3N3CCOCC3)ccc21 | 1000 to 10000 nM
7. Cc1cc(O)nc2ccc(NC(=O)c3cc(S(=O)(=O)N(C)C)ccc3N3CCC(NC(N)=O)C3)cc12 (centres unmarked) | < 200 nM
8. Cc1cc(O)nc2ccc(NC(=O)c3cc(S(=O)(=O)N(C)C)ccc3N3CCC(CC(C)C)C3)cc12 (centres unmarked) | 500 to 1000 nM
9. Cc1cc(O)nc2ccc(NC(=O)c3cc(CNCC4CCCO4)ccc3N3CCCC3)cc12 (centres unmarked) | < 200 nM
10. Cc1cc(O)nc2ccc(NC(=O)c3cc(NS(=O)(=O)c4ccccc4)ccc3N3CCN(C)CC3)cc12 | 500 to 1000 nM
11. CN1C(=O)COc2cc(NC(=O)c3cc([N+](=O)[O-])ccc3N3CCCC3)ccc21 | 1000 to 10000 nM
12. Cc1cc(O)nc2ccc(NC(=O)c3cc(CN4CCOCC4)cnc3N3CCCC3C(=O)N(C)C)cc12 (centres unmarked) | 500 to 1000 nM
13. Cc1cc(O)nc2ccc(NC(=O)c3cc(S(=O)(=O)N4CCOCC4)ccc3Br)cc12 | > 10000 nM
14. CN1C(=O)CCc2cc(NC(=O)c3ccccc3N3CCOCC3)ccc21 | 1000 to 10000 nM
15. Cc1cc(O)nc2ccc(NC(=O)c3cc(S(=O)(=O)N(C)C)ccc3N3CCCC3c3cc[nH]n3)cc12 (centres unmarked) | < 200 nM
16. Cc1cc(O)nc2ccc(NC(=O)c3cc(S(=O)(=O)N(C)C)ccc3N3CCCC3)cc12 | < 200 nM
17. Cc1cc(O)nc2ccc(NC(=O)c3cc(S(=O)(=O)N(C)C)ccc3N3CCC(C)C3)cc12 (centres unmarked) | 500 to 1000 nM
